Below, each entry is listed alongside its reported IC50 (neutralization).
subject of test: HIV-1 Env of isolate MGRM-F1-008 (subtype F) (HIV-1)
method description: cell-based or functional assay

Sample answers from the record:
* PGT-123 (antibody, V domains shown) VH: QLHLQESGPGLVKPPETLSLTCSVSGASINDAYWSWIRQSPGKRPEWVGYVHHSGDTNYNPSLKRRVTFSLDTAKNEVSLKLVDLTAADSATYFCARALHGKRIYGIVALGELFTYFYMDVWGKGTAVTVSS VL: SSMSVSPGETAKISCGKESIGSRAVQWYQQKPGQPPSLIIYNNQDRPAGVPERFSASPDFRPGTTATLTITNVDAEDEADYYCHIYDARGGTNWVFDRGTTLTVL | > 50 µg/mL
* PGT-125 (antibody, V domains shown) VH: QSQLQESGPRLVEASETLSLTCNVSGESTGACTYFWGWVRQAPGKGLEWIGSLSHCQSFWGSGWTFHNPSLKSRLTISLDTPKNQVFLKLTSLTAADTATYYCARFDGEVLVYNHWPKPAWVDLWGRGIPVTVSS VL: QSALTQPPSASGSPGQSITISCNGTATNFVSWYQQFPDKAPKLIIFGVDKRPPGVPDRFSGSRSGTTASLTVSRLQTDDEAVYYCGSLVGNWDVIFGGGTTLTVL | > 50 µg/mL

Enquiry: Endpoint output: IC50 (neutralization) of PGT-126 (antibody, V domains shown) VH: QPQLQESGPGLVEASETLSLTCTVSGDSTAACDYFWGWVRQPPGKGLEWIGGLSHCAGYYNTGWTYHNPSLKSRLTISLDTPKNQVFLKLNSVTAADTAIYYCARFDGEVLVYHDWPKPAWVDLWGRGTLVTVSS VL: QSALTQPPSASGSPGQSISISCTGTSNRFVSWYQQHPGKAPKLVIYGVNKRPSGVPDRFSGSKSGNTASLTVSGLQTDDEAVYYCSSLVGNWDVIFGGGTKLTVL . Value?
Return: > 50 µg/mL
